Numbers sourced from ChEMBL document CHEMBL3872214.

System: Escherichia coli
Experiment: Antibacterial activity against Escherichia coli ATCC 25922 after 18 to 20 hrs by two-fold microbroth dilution method
Type: functional
// log10 of MIC lookup, one value per entry
READOUT_KIND: log10 of MIC (log10 of the value in µM)

COMPOUND | VALUE_OBSERVED
CC(=O)OC[C@H]1O[C@@H](NC(=S)N/N=C2/C(=O)N(CC(C)C)c3ccccc32)[C@H](OC(C)=O)[C@@H](OC(C)=O)[C@@H]1OC(C)=O | 1.10
CCCCN1C(=O)/C(=N/NC(=S)N[C@@H]2O[C@H](COC(C)=O)[C@@H](OC(C)=O)[C@H](OC(C)=O)[C@H]2OC(C)=O)c2ccccc21 | 1.10
CC(=O)OC[C@H]1O[C@@H](NC(=S)N/N=C2/C(=O)Nc3ccccc32)[C@H](OC(C)=O)[C@@H](OC(C)=O)[C@@H]1OC(C)=O | 1.70
CC(=O)OC[C@H]1O[C@@H](NC(=S)N/N=C2/C(=O)Nc3ccc(C(C)C)cc32)[C@H](OC(C)=O)[C@@H](OC(C)=O)[C@@H]1OC(C)=O | 1.70
CC(=O)OC[C@H]1O[C@@H](NC(=S)N/N=C2/C(=O)Nc3ccc(C)cc32)[C@H](OC(C)=O)[C@@H](OC(C)=O)[C@@H]1OC(C)=O | 1.40
O=C(O)c1cn(C2CC2)c2cc(N3CCNCC3)c(F)cc2c1=O [CIPROFLOXACIN] | 0.19
CC(=O)OC[C@H]1O[C@@H](NC(=S)N/N=C2/C(=O)Nc3ccc(I)cc32)[C@H](OC(C)=O)[C@@H](OC(C)=O)[C@@H]1OC(C)=O | 1.70
CC(=O)OC[C@H]1O[C@@H](NC(=S)N/N=C2/C(=O)N(CCc3ccccc3)c3ccccc32)[C@H](OC(C)=O)[C@@H](OC(C)=O)[C@@H]1OC(C)=O | 2.00
CC(=O)OC[C@H]1O[C@@H](NC(=S)N/N=C2/C(=O)N(C)c3ccccc32)[C@H](OC(C)=O)[C@@H](OC(C)=O)[C@@H]1OC(C)=O | 1.10
CC(=O)OC[C@H]1O[C@@H](NC(=S)N/N=C2/C(=O)Nc3c(C)cccc32)[C@H](OC(C)=O)[C@@H](OC(C)=O)[C@@H]1OC(C)=O | 1.40
C=CCN1C(=O)/C(=N/NC(=S)N[C@@H]2O[C@H](COC(C)=O)[C@@H](OC(C)=O)[C@H](OC(C)=O)[C@H]2OC(C)=O)c2ccccc21 | 2.00
CCN1C(=O)/C(=N/NC(=S)N[C@@H]2O[C@H](COC(C)=O)[C@@H](OC(C)=O)[C@H](OC(C)=O)[C@H]2OC(C)=O)c2ccccc21 | 1.10
CC(=O)OC[C@H]1O[C@@H](NC(=S)N/N=C2/C(=O)N(Cc3ccccc3)c3ccccc32)[C@H](OC(C)=O)[C@@H](OC(C)=O)[C@@H]1OC(C)=O | 2.00
CC(=O)OC[C@H]1O[C@@H](NC(=S)N/N=C2/C(=O)Nc3c2cc(Br)cc3[N+](=O)[O-])[C@H](OC(C)=O)[C@@H](OC(C)=O)[C@@H]1OC(C)=O | 1.40
CC(=O)OC[C@H]1O[C@@H](NC(=S)N/N=C2/C(=O)Nc3c2cc(Cl)cc3[N+](=O)[O-])[C@H](OC(C)=O)[C@@H](OC(C)=O)[C@@H]1OC(C)=O | 1.40

* * *

Test system: Rattus norvegicus
Experiment: Antioxidant activity in CCL4-intoxicated Wistar albino rat assessed as liver cytosolic catalase activity per mg protein at 100 mg/kg, ip administered for 7 consecutive days after DL-alpha-tocopherol acetate treatment followed by CCL4 dosing measured after 24 hrs by H2O2 based assay (reference value: 220.15 +/- 11.43 U)
Type: functional

MOL | Activity
C=CCN1C(=O)/C(=N/NC(=S)N[C@@H]2O[C@H](COC(C)=O)[C@@H](OC(C)=O)[C@H](OC(C)=O)[C@H]2OC(C)=O)c2ccccc21 | 357.47 U
CC(=O)OC[C@H]1O[C@@H](NC(=S)N/N=C2/C(=O)Nc3ccc(Cl)cc32)[C@H](OC(C)=O)[C@@H](OC(C)=O)[C@@H]1OC(C)=O | 390.63 U
CCN1C(=O)/C(=N/NC(=S)N[C@@H]2O[C@H](COC(C)=O)[C@@H](OC(C)=O)[C@H](OC(C)=O)[C@H]2OC(C)=O)c2ccccc21 | 358.47 U
CC(=O)OC[C@H]1O[C@@H](NC(=S)N/N=C2/C(=O)Nc3ccc(C)cc32)[C@H](OC(C)=O)[C@@H](OC(C)=O)[C@@H]1OC(C)=O | 258.47 U
CC(=O)OC[C@H]1O[C@@H](NC(=S)N/N=C2/C(=O)Nc3ccc(I)cc32)[C@H](OC(C)=O)[C@@H](OC(C)=O)[C@@H]1OC(C)=O | 399.75 U

* * *

Tested on: Rattus norvegicus
Test: Antioxidant activity in CCL4-intoxicated Wistar albino rat assessed as liver cytosolic glutathione peroxidase activity per mg protein at 100 mg/kg, ip administered for 7 consecutive days after DL-alpha-tocopherol acetate treatment followed by CCL4 dosing measured after 24 hrs by H2O2 based spectrophotometric analysis (reference value: 0.28 +/- 0.01 U)
Type: functional

MOL | Activity, U
CC(=O)OC[C@H]1O[C@@H](NC(=S)N/N=C2/C(=O)Nc3ccc(F)cc32)[C@H](OC(C)=O)[C@@H](OC(C)=O)[C@@H]1OC(C)=O | 0.39
CC(=O)OC[C@H]1O[C@@H](NC(=S)N/N=C2/C(=O)Nc3ccc(I)cc32)[C@H](OC(C)=O)[C@@H](OC(C)=O)[C@@H]1OC(C)=O | 0.35
CCN1C(=O)/C(=N/NC(=S)N[C@@H]2O[C@H](COC(C)=O)[C@@H](OC(C)=O)[C@H](OC(C)=O)[C@H]2OC(C)=O)c2ccccc21 | 0.75
CC(=O)OC[C@H]1O[C@@H](NC(=S)N/N=C2/C(=O)N(CC(C)C)c3ccccc32)[C@H](OC(C)=O)[C@@H](OC(C)=O)[C@@H]1OC(C)=O | 0.91
CCCCN1C(=O)/C(=N/NC(=S)N[C@@H]2O[C@H](COC(C)=O)[C@@H](OC(C)=O)[C@H](OC(C)=O)[C@H]2OC(C)=O)c2ccccc21 | 0.93
CCCN1C(=O)/C(=N/NC(=S)N[C@@H]2O[C@H](COC(C)=O)[C@@H](OC(C)=O)[C@H](OC(C)=O)[C@H]2OC(C)=O)c2ccccc21 | 0.84
CC(=O)OC[C@H]1O[C@@H](NC(=S)N/N=C2/C(=O)N(Cc3ccccc3)c3ccccc32)[C@H](OC(C)=O)[C@@H](OC(C)=O)[C@@H]1OC(C)=O | 1.69
CC(=O)OC[C@H]1O[C@@H](NC(=S)N/N=C2/C(=O)N(CCc3ccccc3)c3ccccc32)[C@H](OC(C)=O)[C@@H](OC(C)=O)[C@@H]1OC(C)=O | 1.73
C=CCN1C(=O)/C(=N/NC(=S)N[C@@H]2O[C@H](COC(C)=O)[C@@H](OC(C)=O)[C@H](OC(C)=O)[C@H]2OC(C)=O)c2ccccc21 | 0.27
CC(=O)OC[C@H]1O[C@@H](NC(=S)N/N=C2/C(=O)Nc3ccccc32)[C@H](OC(C)=O)[C@@H](OC(C)=O)[C@@H]1OC(C)=O | 1.77
Oc1ccc(/C=C/c2cc(O)cc(O)c2)cc1 | 0.33
CC(=O)OC[C@H]1O[C@@H](NC(=S)N/N=C2/C(=O)N(C)c3ccccc32)[C@H](OC(C)=O)[C@@H](OC(C)=O)[C@@H]1OC(C)=O | 0.67
CC(=O)OC[C@H]1O[C@@H](NC(=S)N/N=C2/C(=O)Nc3ccc(C(C)C)cc32)[C@H](OC(C)=O)[C@@H](OC(C)=O)[C@@H]1OC(C)=O | 1.75
CC(=O)OC[C@H]1O[C@@H](NC(=S)N/N=C2/C(=O)Nc3ccc([N+](=O)[O-])cc32)[C@H](OC(C)=O)[C@@H](OC(C)=O)[C@@H]1OC(C)=O | 1.89
CC(=O)OC[C@H]1O[C@@H](NC(=S)N/N=C2/C(=O)Nc3ccc(Br)cc32)[C@H](OC(C)=O)[C@@H](OC(C)=O)[C@@H]1OC(C)=O | 0.32

* * *

Assay: Cytotoxicity against human HepG2 cells after 3 days by MTT assay
Format: functional, cell-based
Settings: HepG2, 72 h
READOUT_KIND: IC50

MOL | READOUT_KIND | VALUE_OBSERVED
Cc1c2ccncc2c(C)c2c1[nH]c1ccccc12 | IC50 | 1.95 µM
CC(=O)OC[C@H]1O[C@@H](NC(=S)N/N=C2/C(=O)Nc3c(Br)cc(Br)cc32)[C@H](OC(C)=O)[C@@H](OC(C)=O)[C@@H]1OC(C)=O | IC50 | 8.41 µM
